- ASSAY_METHOD_TEXT: Pharmacokinetics and oral bioavailability in the mouse
- Format: in vivo
- REPORTED_CONDITIONS: male, Balb Nu/Nu, plasma, 10 mg/kg oral, mean value, read-out: T½ (oral) (converted)
// Not fulfilled strictly below 50 min in half-life; Fulfilled otherwise

GIVEN_SMILES | ANSWER_LABEL
NC(=O)c1cccc2c1C(=O)N(C1CCN(C3CCCCC3)CC1)C2 | Fulfilled

stdin: Does the compound `NC(=O)c1cccc2c1C(=O)N(C1CCN(Cc3ccccn3)CC1)C2` have recorded half-life that is 50 min or more?
stdout: Fulfilled

stdin: Record: `NC(=O)c1cccc2c1C(=O)N(C1CCN(Cc3ccoc3)CC1)C2`
stdout: Fulfilled

stdin: Record: `NC(=O)c1cccc2c1C(=O)N(CCN1CCc3ccccc3C1)C2`
stdout: Not fulfilled

stdin: Record: `NC(=O)c1cccc2c1C(=O)N(C1CCN(Cc3ccc[nH]3)CC1)C2`
stdout: Not fulfilled

====

- ASSAY_METHOD_TEXT: Pharmacokinetics and oral bioavailability in the mouse
- Format: in vivo
- REPORTED_CONDITIONS: male, Balb Nu/Nu, plasma, 10 mg/kg intravenous bolus, mean value, read-out: Cl (IV bolus)
Reported clearance is given for each of the following compounds.
// units = mL/min/kg; emit number, no label

Here's what some known entries look like.
GIVEN_SMILES | READOUT_NAME | ENDPOINT_RESULT
NC(=O)c1cccc2c1C(=O)N(C1CCN(Cc3ccoc3)CC1)C2 | clearance | 81.8
NC(=O)c1cccc2c1C(=O)N(C1CCN(C3CCCCC3)CC1)C2 | clearance | 41.3

stdin: Could you share which clearance value was measured for `NC(=O)c1cccc2c1C(=O)N(C1CCN(Cc3ccccn3)CC1)C2` ?
stdout: 16.9

stdin: Record: `NC(=O)c1cccc2c1C(=O)N(CCN1CCc3ccccc3C1)C2`
stdout: 63.1

stdin: Record: `NC(=O)c1cccc2c1C(=O)N(C1CCN(Cc3ccc[nH]3)CC1)C2`
stdout: 79.3

====

Reported AUC is given for each of the following compounds.
- ASSAY_METHOD_TEXT: Pharmacokinetics and oral bioavailability in the mouse
- Type: in vivo
- REPORTED_CONDITIONS: male, Balb Nu/Nu, plasma, 10 mg/kg oral, mean value
I'd appreciate it if you included the unit after the number.

Here's what some known entries look like.
COMPOUND | ENDPOINT_RESULT
NC(=O)c1cccc2c1C(=O)N(C1CCN(Cc3ccccn3)CC1)C2 [(15)] | 19.2 µM·h
NC(=O)c1cccc2c1C(=O)N(C1CCN(Cc3ccoc3)CC1)C2 [(14)] | 3.22 µM·h
NC(=O)c1cccc2c1C(=O)N(C1CCN(Cc3ccc[nH]3)CC1)C2 [(16)] | 2.13 µM·h

stdin: Could you share which AUC value was measured for NC(=O)c1cccc2c1C(=O)N(CCN1CCc3ccccc3C1)C2 [(3)] ?
stdout: 2.51 µM·h

stdin: Record: NC(=O)c1cccc2c1C(=O)N(C1CCN(C3CCCCC3)CC1)C2 [(11)]
stdout: 20.4 µM·h

====

- ASSAY_METHOD_TEXT: Pharmacokinetics and oral bioavailability in the mouse
- Type: in vivo
- REPORTED_CONDITIONS: male, Balb Nu/Nu, plasma, 10 mg/kg oral, mean value
// Not fulfilled strictly below 3 µM in Cmax; Fulfilled otherwise

stdin: Does the molecule NC(=O)c1cccc2c1C(=O)N(C1CCN(C3CCCCC3)CC1)C2 [(11)] have recorded Cmax that is 3 µM or more?
stdout: Fulfilled

stdin: Record: NC(=O)c1cccc2c1C(=O)N(C1CCN(Cc3ccoc3)CC1)C2 [(14)]
stdout: Not fulfilled

stdin: Record: NC(=O)c1cccc2c1C(=O)N(C1CCN(Cc3ccccn3)CC1)C2 [(15)]
stdout: Fulfilled

Reference source for all entries: patent US10800739B2
